# method: NOVARTIS: Cytotoxicity against human hepatocellular carcinoma cell line (Huh7)
# Assay type: toxicity, cell-based, Huh-7
# test.conditions: Huh7 cells (hepatocellular carcinoma cell line)
value.type: CC50

>  <compound>
COC(=O)C1=C(C)N/C(=C\c2cc(C)n(-c3cc(C)ccc3C)c2C)C1=O

>  <CC50>
> 10 µM

$$$$
>  <compound>
Cc1cc(Nc2ccc(I)cc2)n2ncnc2n1

>  <CC50>
> 100 µM

$$$$
>  <compound>
COc1ccc(Cn2nnnc2CN2CCc3ccccc3C2)cc1

>  <CC50>
> 10 µM

$$$$
>  <compound>
COc1cc(OC)c(NC(=O)c2ccc(N3CC4CC(C3)c3cccc(=O)n3C4)c([N+](=O)[O-])c2)cc1Cl (stereo not given)

>  <CC50>
> 100 µM

$$$$
>  <compound>
COc1ccc(CCN2C(=S)NC3c4cccc(OC)c4OC2(C)C3C(=O)Nc2ccc(C)cc2C)cc1OC (stereo not given)

>  <CC50>
> 100 µM

$$$$

Name the recorded CC50 for CCCCCCN(C(=O)c1ccccc1)C(CC)c1nc2ccccc2c(=O)n1-c1ccccc1OC (stereo not given) .
> 7.98 µM
